- Procedure Summary: Pharmacokinetic assay of Balb/c mice, plasma and brain, oral
- Format: in vivo
- Study Conditions: male, mouse, Brain, p.o. 5 mg/kg
- Experimental: Test Example 3. Pharmacokinetic Assay of Balb/c Mice Balb/c Mice were used as test animals. The pharmacokinetic behavior of the compounds of the present invention was studied in the plasma and brain of mice administered orally at the dose of 5 mg/kg. […] The main pharmacokinetic parameters were calculated using WinNonlin8.1, and the results of the pharmacokinetic experiments in mouse are shown in the table below.
Measure: half-life (h)
One number for each entry, in h.

In the examples that follow, each entry is paired with its recorded half-life.
> print(dat)
                                   compound  assay.result
1  [2H]C1([2H])CO[C@H](c2ccc(F)cc2)CN1 (single isomer, unassigned) [Example 33-1, 2-(4-Fluorophenyl)morpholin-5,5-d2]           3.2
2  Cc1nc([C@@H]2CNCCO2)ccc1F (single isomer, unassigned) [Example 19-2]           1.1

From here, focus on the item given below.
Consider the compound [2H]c1ccnc([C@@H]2CNCCO2)c1 (single isomer, unassigned) [Example 7-2, 2-(pyridin-2-yl-4-d)morpholine] and give its measured half-life.
0.9

Attribution: patent US20250051316A1
